# assay system: Subtilisin A (Bacillus licheniformis)
# Construct: purchased Novozymes
# Sequence (P00780 106-379): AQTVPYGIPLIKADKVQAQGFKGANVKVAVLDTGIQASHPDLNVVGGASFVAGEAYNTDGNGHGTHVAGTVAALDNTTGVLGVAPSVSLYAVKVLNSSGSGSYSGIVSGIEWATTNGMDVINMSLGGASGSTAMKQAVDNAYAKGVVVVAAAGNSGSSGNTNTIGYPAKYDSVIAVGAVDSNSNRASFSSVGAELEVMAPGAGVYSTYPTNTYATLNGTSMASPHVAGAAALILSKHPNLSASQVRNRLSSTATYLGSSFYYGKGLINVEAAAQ
# test protocol: Deprotection of model dipeptides by Subtilisin A (Example 3)
# Assay type: biochemical
# condition context: 0.1 mmol, 5 mg enzyme, 50 v/v % DMF/phosphate buffer pH 7, 40° C., 6 hours
* marks the point of attachment. Cbz = O=C(OCc1ccccc1)*; OtBu = CC(C)(C)O*
metric: Product vs. Substrate (% area), Subtilisin A

>>> value_observed("Cbz-Val-Met-OtBu")
"100/0"
>>> value_observed("Cbz-Val-Ala-OtBu")
"100/0"
>>> value_observed("Cbz-Val-Pro-OtBu")
"0/100"
>>> value_observed("Cbz-Val-Ile-OtBu")
"0/100"
>>> value_observed("Cbz-Val-Gln-OtBu")
"100/0"
>>> value_observed("Cbz-Val-Ser-OtBu")
"100/0"
>>> value_observed("Cbz-Val-Leu-OtBu")
"100/0"
